Test: in vivo
Details: rat, in vivo, iv, 1.5 mg, T1/2

{"columns": ["SMILES_TEXT", "half-life / h"],
 "data": [
  ["CCCCCc1cc(O)c(C/C=C(\\C)CCC=C(C)C)c(O)c1", 2.5]
]}

###

Experiment: Pharmacokinetic studies (oral and intravenous dosing) in jugular vein cannulated rats
Details: rat, in vivo, iv, 1.5 mg
Listed here are molecules together with their documented Vd.

{"columns": ["MOLECULE", "UNITS_LABEL", "Vd"],
 "data": [
  ["CCCCCc1cc(O)c2c(c1)OC(C)(CCC=C(C)C)C=C2 (stereo not drawn)", "L/kg", 11],
  ["CCCCCc1cc(O)c2c(c1)OC(C)(C)c1ccc(C)cc1-2", "L/kg", 6.5],
  ["CCCCCc1cc(O)c(C/C=C(\\C)CCC=C(C)C)c(O)c1", "L/kg", 7.3]
]}

###

Listed here are compounds together with their documented Cmax.
Test: Pharmacokinetic studies (oral and intravenous dosing) in jugular vein cannulated rats
Details: rat, in vivo, po, Cmax, nanoemulsion, rats; 10 mg CBD, 15 mg others; serum, dose-normalized to 1 mg/kg; mean ± SD
Experimental: Absolute oral bioavailability and other pharmacokinetic parameters were determined in a series of two-period, crossover studies, where the cannabinoids were administered intravenously in the first period, and orally in the second. […] Serum and lymph concentrations in all studies were dose-normalized to 1 mg/kg prior to further calculations. AUC values were determined using linear trapezoidal rule. […]
RECORDED_METRIC: Cmax (µg/mL)

{"columns": ["COMPOUND", "RECORDED_METRIC", "QUANTITATIVE_READOUT"],
 "data": [
  ["CCCCCc1cc(O)c2c(c1)OC(C)(C)c1ccc(C)cc1-2", "Cmax", 0.012],
  ["CCCCCc1cc(O)c2c(c1)OC(C)(CCC=C(C)C)C=C2 (centres unmarked)", "Cmax", 0.012]
]}

###

Test: Pharmacokinetic studies (oral and intravenous dosing) in jugular vein cannulated rats
Conditions: rat, in vivo, po, Tmax, oil solution, rats; mean ± SD
Listed here are molecules together with their documented Tmax.

{"columns": ["MOLECULE", "UNITS_LABEL", "Tmax"],
 "data": [
  ["CCCCCc1cc(O)c2c(c1)OC(C)(C)c1ccc(C)cc1-2", "h", 6.5],
  ["C=C(C)[C@@H]1CCC(C)=C[C@H]1c1c(O)cc(CCCCC)cc1O", "h", 6.8],
  ["CCCCCc1cc(O)c2c(c1)OC(C)(CCC=C(C)C)C=C2 (stereo not drawn)", "h", 6]
]}

###

Listed here are compounds together with their documented bioavailability.
Assay: Lymphatic transport studies in anesthetized mesenteric lymph duct cannulated rats
Conditions: rat, in vivo, F, total absolute bioavailability, oil solution, intraduodenal, lymph duct-cannulated rats; sum of FAL and FAP; mean ± SD

{"columns": ["COMPOUND", "UNITS_LABEL", "bioavailability"],
 "data": [
  ["CCCCCc1cc(O)c2c(c1)OC(C)(CCC=C(C)C)C=C2 (stereo not drawn) [CBC, cannabichromene]", "%", 6.6],
  ["CCCCCc1cc(O)c2c(c1)OC(C)(C)c1ccc(C)cc1-2 [CBN, cannabinol]", "%", 5.3],
  ["C=C(C)[C@@H]1CCC(C)=C[C@H]1c1c(O)cc(CCCCC)cc1O [CBD, cannabidiol]", "%", 4]
]}
